Attribution: paper PMC9303458

# test.system: human recombinant MAGL (Homo sapiens)
# Sequence (Q99685 whole entry): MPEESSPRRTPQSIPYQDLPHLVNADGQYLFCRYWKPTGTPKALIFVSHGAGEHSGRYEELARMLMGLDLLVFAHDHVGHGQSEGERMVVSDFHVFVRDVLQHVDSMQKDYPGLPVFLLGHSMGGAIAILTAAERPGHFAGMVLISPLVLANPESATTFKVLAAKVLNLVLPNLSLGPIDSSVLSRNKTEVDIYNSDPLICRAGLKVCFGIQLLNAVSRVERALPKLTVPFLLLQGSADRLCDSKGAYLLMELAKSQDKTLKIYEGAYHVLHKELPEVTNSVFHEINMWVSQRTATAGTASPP
# Assay type: biochemical
# condition.notes: 10 μM, highest test concentration
metric.name: MAGL inhibition at 10 μM

chemical_structure=O=C(OC(C(F)(F)F)C(F)(F)F)N(CCCCCn1ccc2ccc(F)cc21)C1CC1 endpoint_result=inactive
chemical_structure=CC(C)N(CCCCCn1ccc2ccc(F)cc21)C(=O)OC(C(F)(F)F)C(F)(F)F endpoint_result=inactive
chemical_structure=CCN(CCCCCn1ccc2ccc(F)cc21)C(=O)OC(C(F)(F)F)C(F)(F)F endpoint_result=inactive

----------
# test.system: fatty acid amide hydrolase (FAAH), rat brain homogenate (Rattus norvegicus)
# Type: biochemical
# condition.notes: 10 μM, highest test concentration
metric.name: FAAH inhibition at 10 μM

chemical_structure=O=C(OC(C(F)(F)F)C(F)(F)F)N1CCC(Cn2ccc3ccc(F)cc32)CC1 endpoint_result="no inhibitory activity"
chemical_structure=O=C(OC(C(F)(F)F)C(F)(F)F)N1CCC(Cn2ccc3cccnc32)CC1 endpoint_result=ineffective
chemical_structure=O=C(OC(C(F)(F)F)C(F)(F)F)N1CCC(Cn2ccc3cccc(F)c32)CC1 endpoint_result="no inhibitory activity"
chemical_structure=O=C(OC(C(F)(F)F)C(F)(F)F)N1CCC(Cn2cnc3ccccc32)CC1 endpoint_result=ineffective

----------
# test.system: fatty acid amide hydrolase (FAAH), rat brain homogenate (Rattus norvegicus, UniProt P97612)
# Format: biochemical
# condition.notes: read-out: FAAH inhibition at 10 μM, 10 μM, highest test concentration
metric.name: inhibition at 10 µM

Q: I'd like to know its inhibition at 10 µM. The compound in question is Cc1ccc2c(ccn2CC2CCN(C(=O)OC(C(F)(F)F)C(F)(F)F)CC2)c1 [Compound 57]
A: ~25%

Q: Also COc1ccc2c(ccn2CC2CCN(C(=O)OC(C(F)(F)F)C(F)(F)F)CC2)c1 [Compound 60] ?
A: ~25%

Q: Entry to check: CN(CCCCCn1ccc2ccc(F)cc21)C(=O)OC(C(F)(F)F)C(F)(F)F [Compound 35]
A: ~30%

Q: # repeat for N#Cc1ccc2c(ccn2CC2CCN(C(=O)OC(C(F)(F)F)C(F)(F)F)CC2)c1 [Compound 63]
A: ~25%

----------
# key: entry, value: Porcine blood plasma Stability
# experiment.description: Metabolic stability in porcine blood plasma
# Format: in vitro ADME
# condition.notes: percent of parent remaining after 30 min at 37 °C; mean ± SD, n=3
Number only, in %; omit the unit.

molecule="O=C(OC(C(F)(F)F)C(F)(F)F)N1CCC(Cn2ccc3ccc(F)cc32)CC1 [Compound 20]" endpoint_result=82
molecule="O=C(NCCCCCCn1ccc2ccc(F)cc21)OC(C(F)(F)F)C(F)(F)F [Compound 13]" endpoint_result=79
molecule="O=C(OC(C(F)(F)F)C(F)(F)F)N1CCC(CCn2cnc3ccccc32)CC1 [Compound 101]" endpoint_result=93
molecule="O=C(OC(C(F)(F)F)C(F)(F)F)N1CCC(Cn2ccc3cccnc32)CC1 [Compound 125]" endpoint_result=79
molecule="O=C(NCCCCCn1ccc2ccc(F)cc21)OC(C(F)(F)F)C(F)(F)F [Compound 11]" endpoint_result=86
molecule="O=C(OC(C(F)(F)F)C(F)(F)F)N1CCC(CCn2ccc3ccc(F)cc32)CC1 [Compound 24]" endpoint_result=86

Okay, now this molecule:
Q: Sample O=C(OC(C(F)(F)F)C(F)(F)F)N1CCN(Cc2ccc(C(F)(F)F)cc2N2CCCC2)CC1 [ABX‐1431, reference compound] — what was its Porcine blood plasma Stability?
A: 95

----------
# test.system: fatty acid amide hydrolase (FAAH), rat brain homogenate (Rattus norvegicus)
# Sequence (P97612 1-579): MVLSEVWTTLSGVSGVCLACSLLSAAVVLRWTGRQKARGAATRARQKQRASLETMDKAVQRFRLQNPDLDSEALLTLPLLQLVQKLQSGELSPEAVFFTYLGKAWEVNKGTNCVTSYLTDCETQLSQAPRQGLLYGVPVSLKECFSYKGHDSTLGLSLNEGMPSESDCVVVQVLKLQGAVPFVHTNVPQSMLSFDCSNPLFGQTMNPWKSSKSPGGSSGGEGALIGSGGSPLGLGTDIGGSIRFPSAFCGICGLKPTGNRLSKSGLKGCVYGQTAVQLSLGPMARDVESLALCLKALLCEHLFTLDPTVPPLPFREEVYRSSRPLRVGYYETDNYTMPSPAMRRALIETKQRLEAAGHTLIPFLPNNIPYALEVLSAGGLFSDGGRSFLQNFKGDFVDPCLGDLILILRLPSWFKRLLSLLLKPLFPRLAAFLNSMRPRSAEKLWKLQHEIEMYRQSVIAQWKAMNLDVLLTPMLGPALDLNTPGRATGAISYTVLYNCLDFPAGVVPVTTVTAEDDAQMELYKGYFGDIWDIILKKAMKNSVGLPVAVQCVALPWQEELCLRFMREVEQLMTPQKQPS
metric.name: IC50 (µM)

Below are worked cases with known answers.
chemical_structure=O=C(NCCCCCCn1ccc2ccc(F)cc21)OC(C(F)(F)F)C(F)(F)F metric_name=IC50 endpoint_result=0.77
chemical_structure=O=C(NCCCCCn1ccc2ccc(F)cc21)OC(C(F)(F)F)C(F)(F)F metric_name=IC50 endpoint_result=0.74

I: O=C(NCCCCCCCn1ccc2ccc(F)cc21)OC(C(F)(F)F)C(F)(F)F
II: O=C(OC(C(F)(F)F)C(F)(F)F)N1CCC(CCCCn2ccc3ccc(F)cc32)CC1
III: O=C(OC(C(F)(F)F)C(F)(F)F)N1CCC(CCn2ccc3cc(Cl)ccc32)CC1
Q: Rank order required: IC50, descending. Put the labels in the requested order and write them down.
A: III, II, I

----------
# test.system: fatty acid amide hydrolase (FAAH), rat brain homogenate (Rattus norvegicus, UniProt P97612)
# Type: biochemical
# condition.notes: 10 μM, highest test concentration
metric.name: FAAH inhibition at 10 μM

compound="O=C(OC(C(F)(F)F)C(F)(F)F)N1CCC(Cn2ccc3ccccc32)CC1 [Compound 45]" endpoint_result="no inhibitory activity"
compound="O=C(OC(C(F)(F)F)C(F)(F)F)N1CCC(Cn2ccc3c(F)cccc32)CC1 [Compound 48]" endpoint_result="no inhibitory activity"
compound="CC(C)N(CCCCCn1ccc2ccc(F)cc21)C(=O)OC(C(F)(F)F)C(F)(F)F [Compound 40]" endpoint_result=inactive
compound="O=C(OC(C(F)(F)F)C(F)(F)F)N(CCCCCn1ccc2ccc(F)cc21)C1CC1 [Compound 42]" endpoint_result=inactive

----------
// PBS‐buffer pH 7.4 Stability lookup, one value per entry
# experiment.description: Chemical stability in aqueous solution
# Assay type: physicochemical
# condition.notes: percent of parent remaining after 60 min at 37 °C; mean ± SD, n=3
Number in %, nothing else.

Known PBS‐buffer pH 7.4 Stability results, listed for orientation:
compound=O=C(NCCCCCCn1ccc2ccc(F)cc21)OC(C(F)(F)F)C(F)(F)F metric_name="PBS‐buffer pH 7.4 Stability" unit=% endpoint_result=95
compound="O=C(OC(C(F)(F)F)C(F)(F)F)N1CCN(Cc2ccc(C(F)(F)F)cc2N2CCCC2)CC1 [ABX‐1431, reference compound]" metric_name="PBS‐buffer pH 7.4 Stability" unit=% endpoint_result=90
compound=O=C(NCCCCCn1ccc2ccc(F)cc21)OC(C(F)(F)F)C(F)(F)F metric_name="PBS‐buffer pH 7.4 Stability" unit=% endpoint_result=95
compound=O=C(OC(C(F)(F)F)C(F)(F)F)N1CCC(Cn2ccc3cccnc32)CC1 metric_name="PBS‐buffer pH 7.4 Stability" unit=% endpoint_result=92

Kindly consider the entry below.
Q: Which PBS‐buffer pH 7.4 Stability is reported for this compound? O=C(OC(C(F)(F)F)C(F)(F)F)N1CCC(CCn2ccc3ccc(F)cc32)CC1
A: 93

----------
# test.system: UniProtKB P97612
# Sequence (P97612 1-579): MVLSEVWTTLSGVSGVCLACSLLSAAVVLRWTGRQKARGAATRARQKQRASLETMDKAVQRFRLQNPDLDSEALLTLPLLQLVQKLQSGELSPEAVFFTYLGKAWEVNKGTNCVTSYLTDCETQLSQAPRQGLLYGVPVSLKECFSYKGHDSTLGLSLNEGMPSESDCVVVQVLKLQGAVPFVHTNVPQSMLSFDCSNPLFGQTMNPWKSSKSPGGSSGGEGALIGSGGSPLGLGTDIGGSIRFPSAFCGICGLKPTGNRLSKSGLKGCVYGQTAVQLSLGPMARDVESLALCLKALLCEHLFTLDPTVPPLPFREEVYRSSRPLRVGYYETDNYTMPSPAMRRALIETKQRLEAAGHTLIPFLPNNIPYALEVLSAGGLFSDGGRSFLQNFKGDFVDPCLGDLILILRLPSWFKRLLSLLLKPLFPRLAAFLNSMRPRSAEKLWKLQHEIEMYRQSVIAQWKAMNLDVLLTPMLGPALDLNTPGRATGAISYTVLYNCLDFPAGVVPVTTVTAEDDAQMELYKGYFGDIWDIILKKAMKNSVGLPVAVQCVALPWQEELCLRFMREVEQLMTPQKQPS
pIC50: −log10 of the molar value.
metric.name: pIC50

Take a look at these entries with their results.
chemical_structure=O=C(OC(C(F)(F)F)C(F)(F)F)N1CCC(CCn2ccc3cc(F)ccc32)CC1 test_system="UniProtKB P97612" metric_name=pIC50 endpoint_result=5.55
chemical_structure=O=C(OC(C(F)(F)F)C(F)(F)F)N1CCC(CCn2cnc3ccccc32)CC1 test_system="UniProtKB P97612" metric_name=pIC50 endpoint_result=6.00

a: O=C(OC(C(F)(F)F)C(F)(F)F)N1CCN(CCn2ccc3ccc(F)cc32)CC1
b: COc1ccc2c(ccn2CCC2CCN(C(=O)OC(C(F)(F)F)C(F)(F)F)CC2)c1
c: O=C(OC(C(F)(F)F)C(F)(F)F)N1CCC(CCn2ccc3cccc(F)c32)CC1
Q: Order the 3 compounds from highest to lowest pIC50. Return value: ordered labels per request.
A: c, a, b
(c: 5.92, a: 5.59, b: 5.08)
